- measurement description: molar heat capacity at constant pressure
- condition context: 317.15 K; 101.33 kPa; Liquid; Small sample (50 mg) DSC
parameter measured: molar heat capacity at constant pressure (J/K/mol)

Some solved cases for reference:
| line notation | molar heat capacity at constant pressure, J/K/mol |
| --- | --- |
| OCCO | 155.75 |
| OCCCCO | 214.26 |
| OCCCCCO | 246.43 |

A = OCCCO
B = OCCCCCCCO
Task for the reader: decide whether A or B has the larger molar heat capacity at constant pressure. // return label of chosen record
B
(B: 314.83 J/K/mol, A: 184.97 J/K/mol)

---

- measurement description: molar heat capacity at constant pressure
- condition context: 336.65 K; 101.33 kPa; Liquid; Small sample (50 mg) DSC
parameter measured: molar heat capacity at constant pressure (J/K/mol)

| compound | molar heat capacity at constant pressure, J/K/mol |
| --- | --- |
| OCCCCCCCCCO [1,9-nonanediol] | 414.3 |

a = OCCO [1,2-ethanediol]
b = OCCCCCO [1,5-pentanediol]
Among a and b , whose measured molar heat capacity at constant pressure is the smaller figure? // return label of chosen record
a

---

- measurement description: molar heat capacity at constant pressure
- condition context: 344.15 K; 101.33 kPa; Liquid; Small sample (50 mg) DSC
parameter measured: molar heat capacity at constant pressure (J/K/mol)

| line notation | reported |
| --- | --- |
| OCCCCCO | 268.51 |
| OCCCO | 198.34 |

P = OCCO
Q = OCCCCCCCO
Task for the reader: decide whether P or Q has the larger molar heat capacity at constant pressure. // return label of chosen record
Q
(Q: 343.91 J/K/mol, P: 164.42 J/K/mol)

---

- measurement description: molar heat capacity at constant pressure
- condition context: 294.65 K; 101.33 kPa; Liquid; Small sample (50 mg) DSC
parameter measured: molar heat capacity at constant pressure (J/K/mol)

Some solved cases for reference:
| molecule | molar heat capacity at constant pressure [J/K/mol] |
| --- | --- |
| OCCCCCCCO [1,7-heptanediol] | 293.4 |
| OCCCO [propan-1,3-diol] | 174.11 |
| OCCCCO [1,4-butanediol] | 201.33 |

a = OCCO [1,2-ethanediol]
b = OCCCCCO [1,5-pentanediol]
Task for the reader: decide whether a or b has the larger molar heat capacity at constant pressure. // return label of chosen record
b

---

- measurement description: molar heat capacity at constant pressure
- condition context: 335.15 K; 101.33 kPa; Liquid; Small sample (50 mg) DSC
parameter measured: molar heat capacity at constant pressure (J/K/mol)

Some solved cases for reference:
| line notation | unit info | molar heat capacity at constant pressure |
| --- | --- | --- |
| OCCO | J/K/mol | 161.52 |
| OCCCCCCCCO | J/K/mol | 373.24 |
| OCCCCCO | J/K/mol | 260.86 |
| OCCCCCCO | J/K/mol | 299.83 |

1 = OCCCO
2 = OCCCCCCCO
Task for the reader: decide whether 1 or 2 has the larger molar heat capacity at constant pressure. // return label of chosen record
2

---

- measurement description: molar heat capacity at constant pressure
- condition context: 345.65 K; 101.33 kPa; Liquid; Small sample (50 mg) DSC
parameter measured: molar heat capacity at constant pressure (J/K/mol)

Some solved cases for reference:
| compound | unit info | molar heat capacity at constant pressure |
| --- | --- | --- |
| OCCCO [propan-1,3-diol] | J/K/mol | 199.1 |
| OCCCCCCCCCO [1,9-nonanediol] | J/K/mol | 426.72 |
| OCCCCCCCO [1,7-heptanediol] | J/K/mol | 345.63 |

P = OCCO [1,2-ethanediol]
Q = OCCCCCO [1,5-pentanediol]
R = OCCCCCCCCO [1,8-octanediol]
Rank ascending by molar heat capacity at constant pressure. Present the labels in the sequence the task asks for.
P, Q, R

The reported numbers originate from the NIST ThermoML archive (doi:10.1021/je800356x).
